- target-or-test-system: T1, calcitonin receptors (human T47D / MCF7 breast carcinoma cells) (human), P30988
- T1 chain: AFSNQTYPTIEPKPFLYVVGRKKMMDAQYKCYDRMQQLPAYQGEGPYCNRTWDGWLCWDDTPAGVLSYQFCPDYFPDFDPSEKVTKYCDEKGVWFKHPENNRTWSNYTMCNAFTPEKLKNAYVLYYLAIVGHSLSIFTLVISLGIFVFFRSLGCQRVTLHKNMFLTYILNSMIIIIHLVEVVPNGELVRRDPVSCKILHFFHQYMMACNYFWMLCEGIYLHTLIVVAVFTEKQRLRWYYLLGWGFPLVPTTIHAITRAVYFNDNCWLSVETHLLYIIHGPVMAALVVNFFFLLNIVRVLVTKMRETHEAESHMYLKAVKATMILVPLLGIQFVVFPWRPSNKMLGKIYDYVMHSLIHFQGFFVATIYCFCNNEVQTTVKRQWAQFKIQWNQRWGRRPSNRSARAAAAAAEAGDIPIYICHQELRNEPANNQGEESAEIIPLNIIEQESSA
- method-description: radioligand competition vs 125I-salmon calcitonin, human T47D cell membranes
Non-standard residues stand in square brackets, D forms with d. No end group written: not given here. *: point of attachment. Aib = CC(C)(N)C(=O)O; For = O=C*
endpoint-name: IC50 (nM)
# number only, unit nM dropped from output

The recorded IC50 for entry VL[Aib]K(For)LSQEL[Aib]K(For)LQTYPRTNTGSNTY-NH2 [Compound 8] equals 93
